B1: CFHR2 (parent)
chain: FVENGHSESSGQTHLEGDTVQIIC

Variants of: B1
Assay: protein stability index of a GFP-peptide fusion (GPS, HEK-293T) (PSI 1-6); higher = more stable;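 note: lentivirally expressed fusions sorted by FACS into six bins by GFP to DsRed ratio, PSI derived from sequencing read proportions per bin multiplied by bin number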
Conditions: c terminus: a fixed tail appended
Reported protein stability index is given for each of the following variants.
// no unit, no text: just the number

residue-codes	protein stability index
FVENGHSESSGQTHLEGDTVQIIR [C24R]	3.57
FVENGRSESSGQTHLEGDTVQIIC [H6R]	2.85
FVENGHSESSGQTHLEGDTVVIIC [Q21V]	1.85

Give reported protein stability index value for FVENGHSESSGQTQLEGDTVQIIC [H14Q]
3.46

Tell me its protein stability index given FVEEGHSESSGQTHLEGDTVQIIC [N4E] as the entry.
3.47

Provide measured protein stability index value, entry: FVENGHSESSGQTHLEGDTVQMIC [I22M]
2.63

Tell me its protein stability index given FVEVGHSESSGQTHLEGDTVQIIC [N4V] as the entry.
2.18

Look up protein stability index of FVENGFSESSGQTHLEGDTVQIIC [H6F] and report it.
2.29

Return value of protein stability index for input FVENGHSESSGQTHLEGDTVQICC [I23C] , no commentary.
2.73

Source of measurements: the supplement of paper PMC10567573
